Where do the numbers come from? From paper PMC11305403.

Measurement Name: melting point

Sample answers from the record:
>>> result("CC(=O)Oc1c(Br)cc(/C=C(\\NC(=O)c2ccccc2)C(=O)NNC(=O)c2cc(-c3ccc(Br)cc3)nc3ccccc23)cc1Br [Compound 6g]")
"181 to 183 °C"
>>> result("O=C(NNC(=O)c1cc(-c2ccc(Br)cc2)nc2ccccc12)/C(=C/c1ccc([N+](=O)[O-])cc1)NC(=O)c1ccccc1 [Compound 6d]")
"207 to 209 °C"

Alright, here's another compound for you.
The recorded melting point for entry COc1cc(/C=C(\NC(=O)c2ccccc2)C(=O)NNC(=O)c2cc(-c3ccc(Br)cc3)nc3ccccc23)cc(OC)c1OC [Compound 6h] equals 169 to 171 °C

---

Measurement Name: melting point

Sample answers from the record:
>>> result("Cc1ccc(/C=C(\\NC(=O)c2ccccc2)C(=O)NNC(=O)c2cc(-c3ccc(Br)cc3)nc3ccccc23)cc1 [Compound 6e]")
"211 to 213 °C"
>>> result("O=C(NNC(=O)c1cc(-c2ccc(Br)cc2)nc2ccccc12)/C(=C/c1ccc(Br)cc1)NC(=O)c1ccccc1 [Compound 6c]")
"191 to 193 °C"

The recorded melting point for entry O=C(NNC(=O)c1cc(-c2ccc(Br)cc2)nc2ccccc12)/C(=C/c1ccco1)NC(=O)c1ccccc1 [Compound 5] equals 188 to 190 °C

The recorded melting point for entry O=C(NNC(=O)c1cc(-c2ccc(Br)cc2)nc2ccccc12)/C(=C/c1ccc(Cl)cc1)NC(=O)c1ccccc1 [Compound 6b] equals 185 to 187 °C

The recorded melting point for entry O=C(NNC(=O)c1cc(-c2ccc(Br)cc2)nc2ccccc12)/C(=C/c1ccc(F)cc1)NC(=O)c1ccccc1 [Compound 6a] equals 177 to 179 °C

---

target: EGFR tyrosine kinase (Homo sapiens, UniProt P00533)
Sequence (P00533 25-1210): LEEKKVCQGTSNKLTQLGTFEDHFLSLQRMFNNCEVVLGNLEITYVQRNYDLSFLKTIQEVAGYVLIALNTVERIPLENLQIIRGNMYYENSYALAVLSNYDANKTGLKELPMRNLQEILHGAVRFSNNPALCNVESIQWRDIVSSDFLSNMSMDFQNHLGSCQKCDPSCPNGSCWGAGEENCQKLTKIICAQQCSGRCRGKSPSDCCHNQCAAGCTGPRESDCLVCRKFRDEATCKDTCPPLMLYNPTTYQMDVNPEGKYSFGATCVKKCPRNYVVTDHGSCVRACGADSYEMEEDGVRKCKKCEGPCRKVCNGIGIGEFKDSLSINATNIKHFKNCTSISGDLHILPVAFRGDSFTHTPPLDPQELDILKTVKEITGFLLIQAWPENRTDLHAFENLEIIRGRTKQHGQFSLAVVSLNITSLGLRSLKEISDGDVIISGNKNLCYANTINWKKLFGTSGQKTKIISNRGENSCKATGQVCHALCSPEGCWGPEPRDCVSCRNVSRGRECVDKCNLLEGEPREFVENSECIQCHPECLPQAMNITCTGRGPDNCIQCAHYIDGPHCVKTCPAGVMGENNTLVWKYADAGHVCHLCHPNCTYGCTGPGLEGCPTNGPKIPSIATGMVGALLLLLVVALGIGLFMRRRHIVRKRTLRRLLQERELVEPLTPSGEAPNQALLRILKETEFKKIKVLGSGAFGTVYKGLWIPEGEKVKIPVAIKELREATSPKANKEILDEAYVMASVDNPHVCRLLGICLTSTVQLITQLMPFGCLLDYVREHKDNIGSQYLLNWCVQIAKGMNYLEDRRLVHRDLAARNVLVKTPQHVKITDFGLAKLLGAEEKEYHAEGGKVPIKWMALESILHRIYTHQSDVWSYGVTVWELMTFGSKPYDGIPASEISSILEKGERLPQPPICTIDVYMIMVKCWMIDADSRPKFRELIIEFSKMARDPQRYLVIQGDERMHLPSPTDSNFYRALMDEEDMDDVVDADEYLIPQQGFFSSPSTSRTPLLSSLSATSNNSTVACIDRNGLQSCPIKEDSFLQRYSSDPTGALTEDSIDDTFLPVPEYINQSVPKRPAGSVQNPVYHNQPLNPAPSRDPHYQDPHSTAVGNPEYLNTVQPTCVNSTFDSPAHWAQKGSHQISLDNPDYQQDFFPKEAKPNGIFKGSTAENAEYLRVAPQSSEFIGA
Measurement Name: IC50 (nM)
Report the value in nM with no unit label.

Summary line: `COc1ccc(/C=C(\NC(=O)c2ccccc2)C(=O)NNC(=O)c2cc(-c3ccc(Br)cc3)nc3ccccc23)cc1` , EGFR tyrosine kinase (Homo sapiens, UniProt P00533), reported IC50 = 190
